Target: pooled human IgG (human IgG1, 2, 3 and 4) (human); note: test concentration or dose not given here
Assay: cell-based or functional assay
quantity_measured: Enzyme Activity Endpoint Assay: scIgG (ng/µL)
The reply should be a number in ng/µL, with the unit left off.

# return recorded Enzyme Activity Endpoint Assay: scIgG for entry PRT-379 (enzyme) MVTSVWTKGVTPPTNFTYGEDVLHAPYVANQGWYDITKTFNGKDDLLCGAATAGNMLHWWFDQNKEQIENYLKKHPEKQKINFNGEQMFDVKEAIDTKDSQLDSKLFEYFKEKAFPYLSTKHLGVFPDHVIDMFINGYRLSLLNHGPTPVKRGSKDPRGGIFDAVFTRGDQSKLLTNRHDFKEKTLKEISDLIKQELTEGKALGISHTYANVRINHVINLWGADFDAEGNLEAIYVTDSDSNASIGMKKYFVGVNSNGKVAISAKEIEEDNIGAQVLGLFTLSTGQDIWNQTN
226

# return recorded Enzyme Activity Endpoint Assay: scIgG for entry PRT-280 (enzyme) MVTSVWTKGVTPPAKFTQGEDVFHAPYVANQGWYDITKTFNGKDDLLCGAATAGNMLHWWFDQNKEKIEAYLKKHPDKQKIMFGDQELLDVRKVINTKGDQTNSELFNYFRDKAFPNLSARRIGVMPDLVLDMFINGYYLNVYKTQTTDVNRTYQEKDRRGGIFDAVFTRGDQSKLLTSRHDFKEKNLKEISDLIKKELTEGKALGLSHTYANVGINHVINLWGADFDSNGNLKAIYVTDSDSNASIGMKKYFVGVNSSGKVAISAKEIKEDNIGAQVLGLFTLSTGQDSWNQTN
0

# return recorded Enzyme Activity Endpoint Assay: scIgG for entry PRT-426 (enzyme) MTITSVWTKGVTPPTPEDFRYNNEDVLHAPYVANQGWYDITKTFDGKDNLLCGAATAGNMLHWWFDQNKEEIERYLKKHPEKQKIIFNNQELFDVKAAIDTKDSQTNSKLFNYFRDKAFPNLSARQLGVFPDLVLDMFINGYYLNLGKTQSTDVNRPYQDKDKRGGIFDAVFTRGDQTTLLTARHDLKNKGLNEISDLIKQELTEGKALALSHTYANVRINHVINLWGADFDAEGNLIAIYVTDSDANASIGMKKYFVGVNANGKVAISAKKIEGDNIGAQVLGLFTLSTGQDIWQKLS
0

# return recorded Enzyme Activity Endpoint Assay: scIgG for entry PRT-394 (enzyme) MVTSVWTKGVTPPTNFTYGEDVLHAPYVANQGWYDITKTFNGKDDLLCGAATAGNMLHWWFDQNKEQIENYLKKHPEKQKINFNGEQMFDVKEAIDTKDSQLDSKLFEYFKEKAFPYLSTKHLGVFPDHVIDMFINGYRLSLTNHGPTPVKRGSKDPRGGIFDAVFTRGDQSKLLTNRHDFKEKTLKEISDLIKQELTEGKALGISHTYANVRINHVINLWGADFDAEGNLEAIYVTDSDSEASIGMKKYFVGVNSNGKVAISAKEIEEDNIGAQVLGLFTLSTGQDIWNQTN
209

# return recorded Enzyme Activity Endpoint Assay: scIgG for entry PRT-418 (enzyme) MTITSVWTKGVTPPTPEDFRYNNEDVLHAPYVANQGWYDITKTFDGKDNLLCGAATAGNMLHWWFDQNKEEIERYLKKHPEKQKIIFNNQELFDVKAAIDTKDSQTNSKLFNYFRDKAFPNLSARQLGVMPDLVLDMFINGYYLNLGKTQSTDVNRPYQDKDKRGGIFDAVFTRGDQTTLLTARHDLKNKGLNEISDLIKQELTEGKALALSHTYANVRINHVINLWGADFDAEGNLIAIYVTDSDANASIGMKKYAVGVNANGKVAISAKKIEGDNIGAQVLGLFTLSTGQDIWQKLS
149

# return recorded Enzyme Activity Endpoint Assay: scIgG for entry PRT-387 (enzyme) MVTSVWTKGVTPPTNFTYGEDVLHAPYVANQGWYDITKTFNGKDDLLCGAATAGNMLHWWFDQNKEQIENYLKKHPEKQKINFNGEQMFDVKEAIDTKDSQLDSKLFEYFKEKAFPYLSTKHLGVFPDHVIDMFINGYRLSLTNHGPTPVKRGSKDPRGGIFDAVFTRGDQSKLLTNRHDFKEKTLKEISDLIKQELTEGKALGISHTYANVRINHVINLWGADFDAEGNLEAIYVTDSDSNASIGMKKYFVGVNSSGKVAISAKEIEEDNIGAQVLGLFTLSTGQDIWNQTN
242

# return recorded Enzyme Activity Endpoint Assay: scIgG for entry PRT-395 (enzyme) MVTSVWTKGVTPPADFTQGEDVFHAPYVANQGWYDITKTFNGKDDLLCGAATAGNMLHWWFDQNKEYIEAYLKKHPEKQKIMFGDQELLDVRKAINTKGSQKNSELFNYFRDKAFPTLSARRLGVMPDLVLDMFINGYYLNVTKTQTTDVNRTYQEKDKRGGIFDAVFTRGDQSKLLTSRHDFKEKGLKEISDLIKQELTEGKALGLSHTYANVRINHVINLWGADFDSDGNLKAIYVTDSDSNASIGMKKYFVGVNSAGKVAISAKEIKEDNIGAQVLGLFTLSTGQDIWNQTN
204

# return recorded Enzyme Activity Endpoint Assay: scIgG for entry PRT-376 (enzyme) MVTSVWTKGVTPPTNFTYGEDVLHAPYVANQGWYDITKLFNGKDDLLCGAATAGNMLHWWFDQNKEQIENYLKKHPEKQKINFNGEQMFDVKEAIDTKDSQLDSKLFEYFKEKAFPYLSTKHLGVFPDHVIDMFINGYRLSLTNHGPTPVKRGSKDPRGGIFDAVFTRGDQSKLLTNRHDFKEKTLKEISDLIKQELTEGKALGISHTYANVRINHVINLWGADFDAEGNLEAIYVTDSDSNASIGMKKYFVGVNSNGKVAISAKEIEEDNIGAQVLGLFTLSTGQDIWNQTN
196
